Test system: 786-0 renal
protocol_notes: NCI-60 one-dose screen, 48 h
condition_description: 10 µM
This is part of a sample that, as a whole, favours compounds with a hit. Of some 83,000 tested, about 20% had one in any assay. Active and inactive are the calls of the source. The calls were made as follows: active = growth percent below 10; inactive = the rest.
Thanks in advance; please answer with one of these: active, inactive

Example entries begin here.
query_smiles | target_system | cat
O=C(c1ccccc1)c1ccc2nc(-c3ccccc3Br)[nH]c2c1 | 786-0 renal | active
Cc1ccc(-c2nc(C#N)c(S(=O)(=O)N3CCN(S(C)(=O)=O)CC3)o2)cc1 | 786-0 renal | active
O=C(c1ccc(Cl)cc1)C(c1c[nH]c2ccccc12)c1c[nH]c2ccccc12 | 786-0 renal | active
O=C(Nc1ccc(OCC(=O)c2ccc(Cl)cc2)cc1)Nc1ccc(Cl)c(C(F)(F)F)c1 | 786-0 renal | inactive

Please examine the following record next.
Per the records of this test, what outcome belongs to Cc1ccc(S(=O)(=O)N2CCN(S(=O)(=O)c3oc(-c4ccccc4)nc3C#N)CC2)cc1 ? inactive
